So I've got a bunch of compounds here, and I need their concentration at 15 day values.
# EXPERIMENTAL PROTOCOL: Concentration of (poly)phenolic metabolites in fasting urine at baseline, 24 h after single MP beverage and 15th day after 14-day MP intake (UHPLC-QQQ-MS)
# CONDITION DETAILS: human, urine, oral
Numbers only, in µM.

Examples with answers:
COMPOUND	concentration at 15 day, µM
O=C(O)c1cccc(O)c1O [2,3-Dihydroxybenzoic acid]	0.3
O=C(O)c1cc(O)c(O)c(O)c1	0.1
COc1cc(C(=O)O)cc(OC)c1O	1.7

Quick request: concentration at 15 day for each listed item, please.
1. O=Cc1ccc(O)cc1 [Compound 4-Hydroxybenzaldehyde]
2. O=C(O)c1ccc(O)c(O)c1 [3,4-Dihydroxybenzoic acid]
3. O=C(O)CNC(=O)c1ccccc1

1. 0.2
2. 0.8
3. 2020
